Biological target: T1, Monomeric 8-histidine tagged human EGFRvIII extracellular domain (human, UniProt P00533 298-645)
T1 construct: Analyte in all SPR assays; not shown: 8-histidine tag
Experiment: SPR, captured by anti-human Fc, 25 C
Method: Anti-EGFRvII mouse (m) antibody, m62G7, generated from hybridomas was sequenced and subcloned into suitable vectors for expression as murine-human chimeric antibodies. The CDRs of mouse antibody m62G7 were grafted onto human framework and expressed as human IgG1 recombinant antibody, h62G7. Affinity variants of h62G7 were made by introducing mutations in the CDRs of the heavy and light chains. […] Affinity of anti-EGFRvIII antibodies towards human EGFRvIII was measured at both 25° C. and 37° C.
Kindly state pKd for each of the entries shown.
Please note pKd is a logarithmic value: minus log10 of concentration in mol/L. Answer with that number alone.

Which pKd is reported for this binder? h62G7-EQ/L1-DV (antibody, V domains shown, Human IgG1) VH: QVQLVQSGAEVKKPGASVKVSCKASGYTFTDYTLHWVRQAPGQGLEWMGGIWPITGGTTYNQKFKGRVTMTRDTSTSTVYMELSSLRSEDTAVYYCARGEAQGSWGQGTLVTVSS VL: DVVMTQSPLSLPVTLGQPASISCKSSQSLLYSNDKTYTNWFQQRPGQSPRRLIYEVSKLDVGVPDRFSGSGSGTDFTLKISRVEAEDVGVYYCGQDTHFPLTFGGGTKVEIK 7.22

Returns the measured pKd for the input binder. Input: h62G7-H14/L6 (antibody, V domains shown, Human IgG1) VH: QVQLVQSGAEVKKPGASVKVSCKASGYTFTDYTLHWVRQAPGQGLEWMGGIWPITGGTTYNQKFKGRVTMTRDTSTSTVYMELSSLRSEDTAVYYCARGEAEGSWGQGTLVTVSS VL: DVVMTQSPLSLPVTLGQPASISCKSSQSLLYSNGKTYLNWFQQRPGQSPRRLIYQVSKLDSGVPDRFSGSGSGTDFTLKISRVEAEDVGVYYCGQDTHFPLTFGGGTKVEIK 6.00

Query: pKd; subject: h62G7-H14/L1-DV (antibody, V domains shown, Humanized, human IgG1 recombinant antibody) VH: QVQLVQSGAEVKKPGASVKVSCKASGYTFTDYTLHWVRQAPGQGLEWMGGIWPITGGTTYNQKFKGRVTMTRDTSTSTVYMELSSLRSEDTAVYYCARGEAEGSWGQGTLVTVSS VL: DVVMTQSPLSLPVTLGQPASISCKSSQSLLYSNDKTYTNWFQQRPGQSPRRLIYEVSKLDVGVPDRFSGSGSGTDFTLKISRVEAEDVGVYYCGQDTHFPLTFGGGTKVEIK 5.96
